B1: HHH_rd2_0155 (parent)
chain: PPDDERKKAEKAARSGNEEKAREILERLGYSEDEARELAKRLR

# Variants of: B1
# protocol_notes: folding stability dG (cDNA display proteolysis); higher = more stable
# experimental_setup: PBS, room temperature
Parameter class (string): assigned from measured folding stability dG. Ranges: bin 0 = under 1 kcal/mol, bin 1 = from 1 kcal/mol up to 2 kcal/mol, bin 2 = 2 kcal/mol and over

Q: State the band of "E32G"
Result: bin 1

Q: State the band of "P1D"
Result: bin 2

Q: State the band of "L42E"
Result: bin 0

Q: State the band of "E10K"
Result: bin 1

Q: State the band of "K20D"
Result: bin 1

Q: State the band of "G29N"
Result: bin 0

Q: State the band of "K11H"
Result: bin 2

Q: State the band of "L42P"
Result: bin 0

Q: State the band of "R27L"
Result: bin 1

Q: State the band of "S15E"
Result: bin 2

Q: State the band of "G16Y"
Result: bin 1

Q: State the band of "S31F"
Result: bin 0

Q: State the band of "A13R"
Result: bin 0

Q: State the band of "E10N"
Result: bin 1

Q: State the band of "R6D"
Result: bin 0

Q: State the band of "L28V"
Result: bin 0

Q: State the band of "E32L"
Result: bin 1

Q: State the band of "G29E"
Result: bin 0

Q: State the band of "R41G"
Result: bin 0

Q: State the band of "D3C"
Result: bin 2

Q: State the band of "A21T"
Result: bin 1

Q: State the band of "K40L"
Result: bin 1

Q: State the band of "K40Q"
Result: bin 1

Q: State the band of "K7C"
Result: bin 2

Q: State the band of "D4L"
Result: bin 2

Q: State the band of "G29D"
Result: bin 0

Q: State the band of "N17G"
Result: bin 1

Q: State the band of "K11Y"
Result: bin 2

Q: State the band of "G29I"
Result: bin 0

Q: State the band of "R27E"
Result: bin 1

Q: State the band of "R41W"
Result: bin 1

Q: State the band of "K40R"
Result: bin 2

Q: State the band of "P2A"
Result: bin 2

Q: State the band of "E18D"
Result: bin 1

Q: State the band of "R14Y"
Result: bin 1
